experiment: MAD study: nacubactam pharmacokinetics, multiple doses and single dose alone or with meropenem
Format: in vivo, human
particulars: human, plasma, intravenous, 2000 mg

| compound | AUC(0-inf) |
| --- | --- |
| NCCONC(=O)[C@@H]1CC[C@@H]2CN1C(=O)N2OS(=O)(=O)O [Nacubactam] | 225 µg·h/mL |

====

experiment: SAD study: single-dose nacubactam pharmacokinetics (plasma/urine, LC-MS/MS, noncompartmental)
Type: in vivo
particulars: human, plasma, iv, 2000 mg, single i.v. dose 2,000 mg, n = 6, mean (SD), read-out: t1/2 (converted)
readout: half-life (h)

| item smiles | reading |
| --- | --- |
| NCCONC(=O)[C@@H]1CC[C@@H]2CN1C(=O)N2OS(=O)(=O)O | 2.36 |

====

experiment: MAD study: nacubactam pharmacokinetics, multiple doses and single dose alone or with meropenem
Format: in vivo, human
particulars: human, plasma and urine, intravenous, single (1,000 to 8,000 mg) and multiple (1,000 to 4,000 mg) doses; read-out: estimated CLR, range

| item smiles | CL renal |
| --- | --- |
| NCCONC(=O)[C@@H]1CC[C@@H]2CN1C(=O)N2OS(=O)(=O)O | 91.7 to 142 mL/min |

====

experiment: SAD study: single-dose nacubactam pharmacokinetics (plasma/urine, LC-MS/MS, noncompartmental)
Assay type: in vivo
particulars: human, plasma, iv, single i.v. dose 500 mg, n = 6, mean (SD), read-out: t1/2 (converted)

| item smiles | half-life |
| --- | --- |
| NCCONC(=O)[C@@H]1CC[C@@H]2CN1C(=O)N2OS(=O)(=O)O | 1.77 h |

====

experiment: MAD study: nacubactam pharmacokinetics, multiple doses and single dose alone or with meropenem
Type: in vivo, human
particulars: human, plasma, intravenous, 2000 mg, MAD part 1, 2,000 mg q8h for 7 days, day 7, n = 6, geometric mean (%CV); read-out: Vss

| compound | Vd at 7 days (L) |
| --- | --- |
| NCCONC(=O)[C@@H]1CC[C@@H]2CN1C(=O)N2OS(=O)(=O)O [Nacubactam] | 16.5 |

====

experiment: SAD study: single-dose nacubactam pharmacokinetics (plasma/urine, LC-MS/MS, noncompartmental)
Format: in vivo
particulars: human, plasma, iv, single i.v. dose 150 mg, n = 6, mean (SD)

| item smiles | k el (s⁻¹) |
| --- | --- |
| NCCONC(=O)[C@@H]1CC[C@@H]2CN1C(=O)N2OS(=O)(=O)O | 0.000111 |
